Exercise: for every item that follows, state its recorded melting point.

Task: Need melting point of `O=C(C=Cc1ccc(C(F)(F)F)cc1-c1nccs1)Nc1ccc2[nH]ccc2c1` , thanks.
Result: 203 to 204 °C

Task: What value of melting point has been reported for the following compound? `CC1(C)CCC(C)(C)c2cc(C=C=Cc3ccc(C(=O)O)cc3)ccc21`
Result: 227 to 228 °C

Task: Entry `CS(=O)(=O)Nc1cc([C@@H](O)CNC2CCN(c3ccc(S(=O)(=O)NCC(=O)O)cc3)CC2)ccc1O` : reported melting point = ?
Result: 170 to 172 °C

Task: Param item = `CO/C(=C\C=C\c1cc2cc(C(F)(F)F)ccc2[nH]1)C(=O)O` ; retrieve measured melting point.
Result: 191 to 193 °C

Task: Which melting point is listed for `CCc1nc2cc(Cl)c(S(N)(=O)=O)cc2[nH]1` ?
Result: 240 to 242 °C

Task: Recorded melting point of `Cc1noc(C)c1S(=O)(=O)n1cnc2cnccc21` , please.
Result: 130 to 135 °C

Task: Reported melting point, compound `COC(=O)COc1ccc(NC(=O)c2cc(F)cc(N3CCC(C)CC3)c2)c2ccccc12` : ____
Result: 50 to 51 °C

Task: Dear colleague, I am looking for the recorded melting point of the following compound: `CCOC(=O)C(CC(=O)c1ccccc1C(F)(F)F)(NC(C)=O)C(=O)OCC`
Result: 104 to 105 °C

Task: Looking for the measured melting point of `Cc1noc([C@@H](Cc2ccccc2)NC(=O)[C@@H](Cc2ccc3ccccc3c2)NC(=O)[C@@H]2CCCN(C(=O)OC(C)(C)C)C2)n1` , can you help?
Result: 198 to 200 °C

Task: Quick one: melting point for `COc1ccc([N+](=O)[O-])c(Nc2ccc3[nH]ncc3c2)n1` ?
Result: 206 to 208 °C

Task: Quick one: melting point of `COc1ccc(C(=O)c2ccc(Cl)c(S(N)(=O)=O)c2)cc1` ?
Result: 156 to 158 °C

Task: Entry `N#Cc1cc(F)c(N=c2snc3n2CCCC3)cc1F` has what melting point?
Result: 137 °C

Task: Which melting point value is on record for `Cc1cc(C)cc(-c2c(O)c3ccc(Cl)cc3[nH]c2=O)c1` ?
Result: 369 °C

Task: // query melting point value for entry OC1CCc2cc3ccccc3n2C1 (centres undefined)
Result: 99 to 100 °C

Task: I am curious: what melting point value has been reported for `COc1cc(CCNC(=O)c2cccnc2)ccc1O` ?
Result: 192 to 194 °C

Task: Fill in: melting point of `NS(=O)(=O)c1ccc(N2CN(c3cccc(Cl)c3)CC2=O)c(Cl)c1` is ___
Result: 208 to 216 °C

Task: If you can, please state the reported melting point value of `CCOC(=O)c1ncoc1-c1cnc(Cl)c(Cl)c1` .
Result: 95 to 98 °C

Task: # input compound: `CCOCc1nc(C(C)(C)O)c(C(=O)O)n1Cc1ccc(-c2ccccc2C(=O)O)cc1` ; wanted: its melting point
Result: 166 to 169 °C

Task: May I ask what melting point has been recorded for `CCNc1nc(Oc2ccccc2)nc2nc(-c3ccco3)nn12` ?
Result: 127 to 129 °C

Task: Which melting point reading was recorded for the compound COc1ccc(CN2CC(CO)CC2=O)cc1OC (centres undefined) ?
Result: 78 to 79 °C

Task: Item [N-]=[N+]=C1C(=O)CC(c2ccccc2)CC1=O (centres undefined) has what recorded melting point?
Result: 122 to 124 °C

Task: Which melting point value is on record for O=C(NC1CCCCC1)NC1N=C(c2ccccc2F)c2ccccc2N(CC(=O)N2CC3CCC(CC3)C2)C1=O (racemic) ?
Result: 128 to 130 °C

Task: Look up melting point: `O=C(NCCSC(c1ccccc1)(c1ccccc1)c1ccccc1)c1cc2cccc(OCc3ccccc3)c2[nH]1`
Result: 156 to 157 °C

Task: Tell me the measured melting point of COc1ccc(C(c2ccc(N(C)C)cc2)c2ccc(N(C)C)cc2C(=O)O)cc1 (centres undefined) , please.
Result: 185 to 190 °C

Task: Can you look up the measured melting point of `CC(C)CCc1c(-c2ccc(S(N)(=O)=O)cc2)cnn(-c2ccc(F)cc2)c1=O` for me?
Result: 180 to 183 °C

Task: Suppose we examine the compound O=C(Nc1ncc(C(F)(F)F)o1)C1c2ccccc2Oc2cc(F)ccc21 (racemic) ; what melting point value has been reported?
Result: 250 °C

Task: Requested read-out: melting point. Entry: `CN(C)Cc1ccc(CNCCN2CCNC2=C(C#N)C#N)o1`
Result: 159 to 160 °C

Task: Looking for the measured melting point of `Cc1ccc(-c2cc3cc(C(=O)O)ccc3o2)cc1` , can you help?
Result: 279 to 283 °C

Task: Please look up its melting point: `COc1ccc(COc2ccc(C=C3SC(=S)N(CC(=O)O)C3=O)cc2OCc2ccc(OC)cc2)cc1`
Result: 151 to 155 °C

Task: // lookup melting point for O=C(C1CCCc2c1c1ccccc1n2Cc1ccccc1)N1CCCC1 (centres undefined)
Result: 232 to 234 °C

Task: Can you look up the measured melting point of `C=CCn1c(=O)n(-c2cccc(C)n2)c2ncccc21` for me?
Result: 111 to 112 °C

Task: Any idea what its melting point is? The compound is `CC(=O)c1nn(-c2c(Cl)cc(C(F)(F)F)cc2Cl)cc1SC(F)(F)F`
Result: 89 to 91 °C

Task: Quick check: melting point of `Clc1ccc(N2CCN(c3ccccn3)CC2)nn1` ?
Result: 195 °C

Task: Please give the measured melting point for this compound: `CSC(=C[N+](=O)[O-])NCCCCc1csc(N(CC(F)(F)F)C(=N)N)n1`
Result: 140 to 141 °C

Task: Param item = `O=P(O)(O)C(O)(Cn1ccnc1)P(=O)(O)O` ; retrieve measured melting point.
Result: 235 to 241 °C

Task: Can you share its melting point? I mean this compound: `CCn1c(=O)n(O)c(=O)c2cc(F)c(N3CCCCC3)cc21`
Result: 173 to 175 °C

Task: Can you share its melting point? I mean this compound: `O=[N+]([O-])c1ccc(Oc2c(Cl)cc(C(F)(F)F)cc2Cl)cc1S(=O)(=O)c1cc[nH]n1`
Result: 159 °C

Task: What value of measured melting point is listed for `O=C(Nc1ccc(N2CCN(C(=O)Nc3ccc(OCCO)cc3Cl)CC2)cc1)Nc1ccccc1F` ?
Result: 213 to 217 °C

Task: I am curious: what melting point value has been reported for `COc1cc2c(cc1OCc1ccccc1)ncc1c(N)nc(-n3ccnc3)cc12` ?
Result: 140 °C
